molecular target: Fibroblast growth factor 10 (Homo sapiens); assay: FGF10 binders on small-molecule microarrays, primary screen, biochemical, small-molecule microarray, 635 nm fluorescence (AID 1102); conditions: FGF10 binding, fluorescence 635 nm, higher = more signal
A collection of molecules and their measured composite z-score
Endpoint: composite z-score

- Molecule: "C=C(C)C1CCC(C(O)C2C=CC3C(=O)N(C)C(=O)C3N2Nc2cc(OC)c(OC)c(OC)c2)CC1 (stereo not given)"
  Endpoint: "composite z-score"
  Measured: 0.755
- Molecule: "O=C1c2ccccc2[C@](Cc2ccccc2I)(C(=O)NC2CC2)[C@H](c2ccc(CO)cc2)N1Cc1ccccc1C(F)(F)F"
  Endpoint: "composite z-score"
  Measured: 0.535
- Molecule: "CCCCC(=C=CC[C@H](O)c1ccc(OCCO)cc1)C[C@H](O)COCc1ccccc1"
  Endpoint: "composite z-score"
  Measured: 0.793
- Molecule: "Nc1cc(Br)ccc1C(=O)O"
  Endpoint: "composite z-score"
  Measured: 0.339
- Molecule: "COc1ccc(C(O)C2C=CC3C(=O)N(c4ccccc4)C(=O)C3N2Nc2ccc(C(C)C)cc2)c2ccccc12 (stereo not given)"
  Endpoint: "composite z-score"
  Measured: 0.839
